System: SK-MEL-5 melanoma
assay-procedure: NCI-60 one-dose screen, 48 h (100 = growth as untreated, 0 = no growth, -100 = all killed)
conditions: 10 µM
The panel holds about 83,000 compounds, 20% with a hit somewhere; the sample as a whole holds those more often.
Values of growth greater than or equal to 90% map to 1; values below map to 0.

| compound | assayed-system | class-name |
| --- | --- | --- |
| COc1ccc(/C(=C/c2cc(OC)c(OC)cc2[N+](=O)[O-])C(=O)O)cc1 | SK-MEL-5 melanoma | 1 |
| CCCCCCCCCCCCCCCCn1cc[n+](C)c1 | SK-MEL-5 melanoma | 0 |
| NS(=O)(=O)c1ccc(N2N=C(c3ccc(-c4ccccc4)cc3)CC2c2ccc(Cl)cc2)cc1 (stereo unspecified) | SK-MEL-5 melanoma | 0 |
| Cc1ccc(NS(=O)(=O)c2ccccc2)c(NS(=O)(=O)c2ccccc2)c1 | SK-MEL-5 melanoma | 1 |
| O=[N+]([O-])c1ccc(Br)o1 | SK-MEL-5 melanoma | 1 |
| COc1cccc(-c2nnc(COc3ccc(-c4nc5ccccc5[nH]4)cc3OC)o2)c1 | SK-MEL-5 melanoma | 0 |
| COc1cc(-c2c(C#N)c(N)n3c(nc4ccccc43)c2C#N)cc(Br)c1OC | SK-MEL-5 melanoma | 0 |
| CC(=O)OCC(COC(C)=O)(COC(C)=O)COC(C)=O | SK-MEL-5 melanoma | 1 |
| Cc1c(C(=O)N[C@H](CO)Cc2ccccc2)[nH]c2ccc(Cl)cc2c1=O | SK-MEL-5 melanoma | 1 |
| CCOC(=O)CSC(=S)SCC(=O)OCC | SK-MEL-5 melanoma | 1 |
| COc1ccc(C(=O)/C=C/c2cc(-c3ccc4c(c3)OCO4)n[nH]2)cc1OC | SK-MEL-5 melanoma | 0 |
